As shown below, each of these binders has a reported inverse agonist, % decrease from basal signal value.
Target: human melanocortin-4 receptor (human, UniProt P32245 1-332); further: test concentration or dose not given here
Sequence (P32245 whole entry): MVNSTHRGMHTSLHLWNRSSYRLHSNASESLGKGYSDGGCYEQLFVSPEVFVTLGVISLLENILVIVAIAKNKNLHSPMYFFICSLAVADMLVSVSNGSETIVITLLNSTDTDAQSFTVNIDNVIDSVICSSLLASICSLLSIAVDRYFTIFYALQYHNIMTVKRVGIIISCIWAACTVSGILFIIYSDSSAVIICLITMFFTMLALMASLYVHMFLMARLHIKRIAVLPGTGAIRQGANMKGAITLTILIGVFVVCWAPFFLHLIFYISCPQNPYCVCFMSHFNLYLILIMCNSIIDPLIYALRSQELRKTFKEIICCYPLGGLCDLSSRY
Assay: cell-based or functional assay
Square brackets hold non-standard residues; d marks the D form.
quantityName: inverse agonist, % decrease from basal signal (%)

# binder, observedValue
measured = [
    ("PRFFXAFP (head-to-tail cyclic; DDap at 5; DPro at 8) [c[Pro-Arg-Phe-Phe-DDap-Ala-Phe-DPro]]", -30),
    ("RCVRLHESCLGQQVPCCDPCATCYCRFFNAFCYCRKLGTAMNPCSRT (ligand, human, UniProt O00253 86-132, looked up, range 86-132; also called C-terminal domain of AGRP) [hAGRP(86-132)]", -35),
    ("cyclo(PRFFAAF[dP]) [c[Pro-Arg-Phe-Phe-Ala-Ala-Phe-DPro]]", -35),
    ("PRFFXAFP (head-to-tail cyclic; Abu at 5; DPro at 8) [c[Pro-Arg-Phe-Phe-Abu-Ala-Phe-DPro]]", -15),
    ("cyclo(PRFFSAF[dP]) [c[Pro-Arg-Phe-Phe-Ser-Ala-Phe-DPro]]", -25),
    ("cyclo(PRFFNAF[dP]) (also: assayed as TFA salt) [c[Pro-Arg-Phe-Phe-Asn-Ala-Phe-DPro]]", -30),
    ("PRFFXAFP (head-to-tail cyclic; Dap at 5; DPro at 8) [c[Pro-Arg-Phe-Phe-Dap-Ala-Phe-DPro]]", -50),
]
